System: H460
test.summary: Proliferation assay (Cell Titer-Glo, 72 h), H460
experimental.conditions: H460, Lung, dihydrochloride
Counter-ions that a name gives are not always drawn.
readout.label: IC50 (nM)
Give bare numbers, in nM.

Request: Report IC50 for COc1c(OCCCN2CCOCC2)ccc2c1N=C(NC(=O)c1cnc(N)nc1)N1CCN=C21 [dihydrochloride salt of formula (II)] please.
Result: 67

====

System: PC3
test.summary: Proliferation assay (Cell Titer-Glo, 72 h), PC3
experimental.conditions: Homo sapiens, PC-3, 72 h, PC3, Prostate
readout.label: IC50 (nM)
Give bare numbers, in nM.

Request: Report IC50 for "COc1c(OCCCN2CCOCC2)ccc2c1N=C(NC(=O)c1cnc(N)nc1)N1CCN=C21" please.
Result: 100

====

Test system: SK-Br-3
test.summary: Proliferation assay (Cell Titer-Glo, 72 h), SK-Br-3
experimental.conditions: Homo sapiens, SK-BR-3, 72 h, SK-Br-3, Breast
readout.label: pIC50
Numbers only, as −log10 of the molar value.

Request: Please state recorded pIC50 (tested on SK-Br-3) of "COc1c(OCCCN2CCOCC2)ccc2c1N=C(NC(=O)c1cnc(N)nc1)N1CCN=C21"
Result: 8.70

====

System: H460
test.summary: Proliferation assay (Cell Titer-Glo, 72 h), H460
experimental.conditions: Homo sapiens, NCI-H460, 72 h, H460, Lung
readout.label: pIC50
Answers are plain numbers, as −log10 of the molar value.

Request: Report pIC50 for COc1c(OCCCN2CCOCC2)ccc2c1N=C(NC(=O)c1cnc(N)nc1)N1CCN=C21 [compound of formula (I)] please.
Result: 7.34

====

Tested on: PC3
test.summary: Proliferation assay (Cell Titer-Glo, 72 h), PC3
experimental.conditions: PC3, Prostate, dihydrochloride
Where a name gives a salt, the structure may show the parent alone.
readout.label: IC50 (nM)
Answers are plain numbers, in nM.

Request: Report IC50 for COc1c(OCCCN2CCOCC2)ccc2c1N=C(NC(=O)c1cnc(N)nc1)N1CCN=C21 [dihydrochloride salt of formula (II)] please.
Result: 90

====

Test system: HCT116
test.summary: Proliferation assay (Cell Titer-Glo, 72 h), HCT116
experimental.conditions: HCT116, Colon, dihydrochloride
Counter-ions that a name gives are not always drawn.
readout.label: IC50 (nM)
Answers are plain numbers, in nM.

Request: Report IC50 for COc1c(OCCCN2CCOCC2)ccc2c1N=C(NC(=O)c1cnc(N)nc1)N1CCN=C21 [dihydrochloride salt of formula (II)] please.
Result: 72

====

test.summary: physchem
experimental.conditions: 25 °C, water, thermodynamic from solid
Structures can show the parent of a compound that is named as a salt.
readout.label: solubility thermodynamic at 16 h

Request: Report solubility thermodynamic at 16 h for COc1c(OCCCN2CCOCC2)ccc2c1N=C(NC(=O)c1cnc(N)nc1)N1CCN=C21 [dihydrochloride salt of formula (II)] please.
Result: > 88 µg/mL
